Molecular target: 5-hydroxytryptamine receptor 1D (Homo sapiens)
Sequence (P28221 whole entry): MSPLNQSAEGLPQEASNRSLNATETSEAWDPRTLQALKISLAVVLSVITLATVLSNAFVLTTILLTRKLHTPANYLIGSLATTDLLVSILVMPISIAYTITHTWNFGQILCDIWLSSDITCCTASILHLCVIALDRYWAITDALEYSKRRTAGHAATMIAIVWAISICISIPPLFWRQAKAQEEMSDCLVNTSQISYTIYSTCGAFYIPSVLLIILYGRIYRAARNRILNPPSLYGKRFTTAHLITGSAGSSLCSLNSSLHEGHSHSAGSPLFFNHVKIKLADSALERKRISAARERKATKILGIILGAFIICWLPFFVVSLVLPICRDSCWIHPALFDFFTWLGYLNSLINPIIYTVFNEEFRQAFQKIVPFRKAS
Assay: Displacement of specific [3H]5-HT binding to cloned human 5-hydroxytryptamine 1D receptor expressed in CHO cells
pIC50: −log10 of the molar value.
endpoint label: pIC50

Fc1cccc(CCN2CCN(CC(F)(F)Cc3c[nH]c4ccc(-n5cnnc5)cc34)CC2)c1
7.82
FC1(Cc2ccccc2C(F)(F)F)CCN(CCCc2c[nH]c3ccc(-n4cnnc4)cc23)CC1
9.52
CN(Cc1ccccc1)C1CCN(CC(F)(F)Cc2c[nH]c3ccc(-n4cnnc4)cc23)CC1
7.46

1: Fc1ccc(CCC2(F)CCN(CCCc3c[nH]c4ccc(-n5cnnc5)cc34)CC2)cc1
2: Fc1cccc(CC2(F)CCN(CCCc3c[nH]c4ccc(-n5cnnc5)cc34)CC2)c1
Form field 'greater pIC50' accepts 1 or 2 ; which applies? Select an item and report its label. 2
(2: 9.40, 1: 9.00)

* * *

Molecular target: 5-hydroxytryptamine receptor 1D (Homo sapiens)
Assay: Agonist-induced [35S]GTP-gamma-S, binding in CHO cells stably transfected with human 5-hydroxytryptamine 1D receptor
endpoint label: EC50 (nM)

Field: example entries. Status: answers known.
FC1(Cc2ccccc2)CCN(CCCc2c[nH]c3ccc(-n4cnnc4)cc23)CC1
0.4
FC(F)(Cc1c[nH]c2ccc(-n3cnnc3)cc12)CN1CCC(OCc2ccccc2)CC1
34
CC(CC1(F)CCN(CCCc2c[nH]c3ccc(-n4cnnc4)cc23)CC1)c1ccccc1 (centres undefined)
2.6
CN(Cc1ccccc1)C1CCN(CCCc2c[nH]c3ccc(-n4cnnc4)cc23)CC1
1.5
CC(CN1CCN(CC(F)Cc2c[nH]c3ccc(-n4cnnc4)cc23)CC1)c1ccc(F)cc1 (centres undefined)
1.6

A: Fc1cccc(CCC2(F)CCN(CCCc3c[nH]c4ccc(-n5cnnc5)cc34)CC2)c1
B: Fc1cccc(CCN2CCN(CC(F)(F)Cc3c[nH]c4ccc(-n5cnnc5)cc34)CC2)c1
When the recorded EC50 values are compared, which is smaller: that of A or that of B ? // caller expects the label of the chosen entry A

a: CC(CN1CCN(CC(F)(F)Cc2c[nH]c3ccc(-n4cnnc4)cc23)CC1)c1ccccc1 (centres undefined)
b: Fc1cccc(CCN2CCN(CC(F)Cc3c[nH]c4ccc(-n5cnnc5)cc34)CC2)c1 (stereo in doubt; 25)
# argmax over EC50 for candidates a and b Identify your pick by its label. a

* * *

Biological target: 5-hydroxytryptamine receptor 1B (Homo sapiens)
Sequence (P28222 whole entry): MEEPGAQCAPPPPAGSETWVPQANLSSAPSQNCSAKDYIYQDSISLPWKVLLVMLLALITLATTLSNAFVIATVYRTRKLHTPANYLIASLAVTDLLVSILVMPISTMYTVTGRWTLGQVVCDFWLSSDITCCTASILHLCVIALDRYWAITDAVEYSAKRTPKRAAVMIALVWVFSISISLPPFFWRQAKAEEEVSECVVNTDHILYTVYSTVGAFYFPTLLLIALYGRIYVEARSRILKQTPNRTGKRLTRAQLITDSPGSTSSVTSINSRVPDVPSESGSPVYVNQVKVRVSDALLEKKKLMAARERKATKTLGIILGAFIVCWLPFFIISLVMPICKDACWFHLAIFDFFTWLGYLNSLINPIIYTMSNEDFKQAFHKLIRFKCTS
Assay: Agonist-induced [35S]GTP-gamma-S, binding in CHO cells stably transfected with human 5-hydroxytryptamine 1B receptor
pEC50: −log10 of the molar value.
endpoint label: pEC50

Worked set:
c1ccc(CC2CCN(CCCc3c[nH]c4ccc(-n5cnnc5)cc34)CC2)cc1
6.92
Fc1cccc(CCN2CCN(CCCc3c[nH]c4ccc(-n5cnnc5)cc34)CC2)c1
6.37

I: CC(CC1(F)CCN(CCCc2c[nH]c3ccc(-n4cnnc4)cc23)CC1)c1ccccc1 (stereo not given)
II: CC(CN1CCN(CC(F)Cc2c[nH]c3ccc(-n4cnnc4)cc23)CC1)c1ccc(F)cc1 (stereo not given)
III: FC(F)(Cc1c[nH]c2ccc(-n3cnnc3)cc12)CN1CCC(OCc2ccccc2)CC1
Please give the order of these compounds when sorted by pEC50, largest value leading. Respond with an ordered listing of the labels, as requested. I, II, III

* * *

Target: Serotonin 1 receptors; 5-HT1B & 5-HT1D (Homo sapiens) (UniProt P28222+P28221)
Test: Selectivity towards 5-HT1D and to that of 5-HT1B in CHO cells
Format: cell-based
endpoint label: Selectivity

FC(Cc1c[nH]c2ccc(-n3cnnc3)cc12)CN1CCC(OCc2ccccc2)CC1 (centres undefined)
100
F[C@H]1CN(CCCc2c[nH]c3ccc(-n4cnnc4)cc23)CC[C@@H]1NCc1ccccc1C(F)(F)F
34
CC(CN1CCN(CC(F)Cc2c[nH]c3ccc(-n4cnnc4)cc23)CC1)c1ccccc1F (centres undefined)
380
FC(F)(Cc1c[nH]c2ccc(-n3cnnc3)cc12)CN1CCC(CCc2ccccc2)CC1
104
Fc1cccc(CCC2(F)CCN(CCCc3c[nH]c4ccc(-n5cnnc5)cc34)CC2)c1
31

1: Fc1cccc(CCN2CCN(CC(F)Cc3c[nH]c4ccc(-n5cnnc5)cc34)CC2)c1 (stereo in doubt; 25)
2: Fc1cccc(CCN2CCN(C[C@@H](F)Cc3c[nH]c4ccc(-n5cnnc5)cc34)CC2)c1
Determine, for 1 and 2 , which has the greater value of Selectivity. Reply with the label of the item you choose. 1

A: CN(Cc1ccccc1C(F)(F)F)[C@H]1CCN(CCCc2c[nH]c3ccc(-n4cnnc4)cc23)C[C@H]1F
B: OC(Cc1c[nH]c2ccc(-n3cnnc3)cc12)CN1CCN(Cc2ccccc2)CC1 (centres undefined)
Consider entries A and B . Which has the numerically lower Selectivity? Indicate which entry you chose by stating its label. A
(A: 24, B: 200)

I: Fc1ccc(CCN2CCN(CC(F)Cc3c[nH]c4ccc(-n5cnnc5)cc34)CC2)cc1 (centres undefined)
II: FC1(CCc2ccccc2)CCN(CCCc2c[nH]c3ccc(-n4cnnc4)cc23)CC1
III: FC(F)(Cc1c[nH]c2ccc(-n3cnnc3)cc12)CN1CCC(Cc2ccccc2)CC1
Sequence the entries by Selectivity, beginning with the highest number. List the labels according to the requested ordering. I, II, III

P: FC(Cc1c[nH]c2ccc(-n3cnnc3)cc12)CN1CCC(Cc2ccccc2)CC1 (centres undefined)
Q: Fc1ccccc1CCC1(F)CCN(CCCc2c[nH]c3ccc(-n4cnnc4)cc23)CC1
R: Fc1cccc(CCN2CCN(CC(F)(F)Cc3c[nH]c4ccc(-n5cnnc5)cc34)CC2)c1
Which order do these items take when sorted by rising Selectivity? List them. List the labels in the requested order. Q, P, R

* * *

System: Rattus norvegicus
Assay: Oral absorption study in rat plasma obtained from cardiac blood samples after 2 hours of administration of 3 mg/kg orally
Type: functional, organism-based
Design: dose 3 mg/kg
Readings of Plasma concentration for the listed molecules
Only the number, expressed in ng/mL, is required.

Observe how each entry below is paired with its result.
CN(Cc1ccccc1)C1CCN(CC(F)Cc2c[nH]c3ccc(-n4cnnc4)cc23)CC1 (configuration not stated)
10
FC1(Cc2ccccc2)CCN(CCCc2c[nH]c3ccc(-n4cnnc4)cc23)CC1
35

Param request: Plasma concentration | system Rattus norvegicus | item `CN(Cc1ccccc1)[C@H]1CCN(CCCc2c[nH]c3ccc(-n4cnnc4)cc23)C[C@H]1F` 3

Print Rattus norvegicus Plasma concentration for `CN(Cc1ccccc1)C1CCN(CCCc2c[nH]c3ccc(-n4cnnc4)cc23)CC1` . 5

Provide Plasma concentration, tested on Rattus norvegicus, for FC(Cc1c[nH]c2ccc(-n3cnnc3)cc12)CN1CCC(Cc2ccccc2)CC1 (configuration not stated) . 46

* * *

Experiment: Cmax in rat
Format: ADME, organism-based
Conditions: in vivo
endpoint label: Cmax (µg/mL)
Reply with just the number (in µg/mL).

Give the reported Cmax for this molecule. `FC(F)(Cc1c[nH]c2ccc(-n3cnnc3)cc12)CN1CCC(OCc2ccccc2)CC1` 0.157

* * *

Target: 5-hydroxytryptamine receptor 1B (Homo sapiens)
Assay: Agonist-induced [35S]GTP-gamma-S, binding in CHO cells stably transfected with human 5-hydroxytryptamine 1B receptor
pEC50: −log10 of the molar value.
endpoint label: pEC50

Fc1cccc(CCN2CCN(CC(F)Cc3c[nH]c4ccc(-n5cnnc5)cc34)CC2)c1 (stereo in doubt; 25)
6.09
CC(CN1CCN(CC(F)(F)Cc2c[nH]c3ccc(-n4cnnc4)cc23)CC1)c1ccccc1 (centres undefined)
5.29
FC(Cc1c[nH]c2ccc(-n3cnnc3)cc12)CN1CCC(Cc2ccccc2)CC1 (centres undefined)
6.35
CN(Cc1ccccc1)C1CCN(CCCc2c[nH]c3ccc(-n4cnnc4)cc23)CC1
5.85
FC1(Cc2ccccc2)CCN(CCCc2c[nH]c3ccc(-n4cnnc4)cc23)CC1
7.18

I: FC1(Cc2ccccc2C(F)(F)F)CCN(CCCc2c[nH]c3ccc(-n4cnnc4)cc23)CC1
II: CC(CN1CCN(CC(F)Cc2c[nH]c3ccc(-n4cnnc4)cc23)CC1)c1cccc(F)c1 (centres undefined)
I'd appreciate it if you could identify which of I and II has the greater pEC50. Let me know the label of the one you choose. I
(I: 6.54, II: 5.82)

I: Fc1cccc(CCC2(F)CCN(CCCc3c[nH]c4ccc(-n5cnnc5)cc34)CC2)c1
II: CN(Cc1ccccc1)C1CCN(CC(F)Cc2c[nH]c3ccc(-n4cnnc4)cc23)CC1 (centres undefined)
When I and II are compared, which has the higher number for pEC50? Which one? Tell me its label. I
(I: 6.36, II: 4.99)

* * *

Biological target: Serotonin 1 receptors; 5-HT1B & 5-HT1D (Homo sapiens) (UniProt P28222+P28221)
Test: Selectivity towards 5-HT1D and to that of 5-HT1B in CHO cells
Assay type: cell-based
endpoint label: Selectivity

FC(Cc1c[nH]c2ccc(-n3cnnc3)cc12)CN1CCN(CCc2ccccc2)CC1 (stereo not given)
137
CN(Cc1ccccc1)[C@H]1CCN(CCCc2c[nH]c3ccc(-n4cnnc4)cc23)C[C@H]1F
18

A: Fc1ccc(CCC2(F)CCN(CCCc3c[nH]c4ccc(-n5cnnc5)cc34)CC2)cc1
B: FC1(Cc2ccccc2C(F)(F)F)CCN(CCCc2c[nH]c3ccc(-n4cnnc4)cc23)CC1
Consider entries A and B . Which has the numerically lower Selectivity? Answer = label. A
(A: 25, B: 47)

P: CC(CC1(F)CCN(CCCc2c[nH]c3ccc(-n4cnnc4)cc23)CC1)c1ccccc1 (stereo not given)
Q: Fc1cccc(CCN2CCN(CCCc3c[nH]c4ccc(-n5cnnc5)cc34)CC2)c1
R: CC(CN1CCN(CC(F)(F)Cc2c[nH]c3ccc(-n4cnnc4)cc23)CC1)c1ccccc1 (stereo not given)
Order each entry by recorded Selectivity, climbing from the minimum. In plain terms: list the labels in the order you were asked to. P, Q, R

P: Fc1cccc(CCN2CCN(CC(F)Cc3c[nH]c4ccc(-n5cnnc5)cc34)CC2)c1 (stereo in doubt; 28)
Q: FC(F)(Cc1c[nH]c2ccc(-n3cnnc3)cc12)CN1CCC(COc2ccccc2)CC1
Two entries are listed, P and Q . Which one carries the higher Selectivity? When you have decided, please share the label of that item. P
(P: 196, Q: 26)

Each recorded value in this set is attributed to ChEMBL document CHEMBL1132237.
